# target-system: motilin receptor (Oryctolagus cuniculus, UniProt G1T803)
# Construct: from tissue; host or cells: rabbit antral smooth muscle membranes
# Sequence (G1T803 1-400): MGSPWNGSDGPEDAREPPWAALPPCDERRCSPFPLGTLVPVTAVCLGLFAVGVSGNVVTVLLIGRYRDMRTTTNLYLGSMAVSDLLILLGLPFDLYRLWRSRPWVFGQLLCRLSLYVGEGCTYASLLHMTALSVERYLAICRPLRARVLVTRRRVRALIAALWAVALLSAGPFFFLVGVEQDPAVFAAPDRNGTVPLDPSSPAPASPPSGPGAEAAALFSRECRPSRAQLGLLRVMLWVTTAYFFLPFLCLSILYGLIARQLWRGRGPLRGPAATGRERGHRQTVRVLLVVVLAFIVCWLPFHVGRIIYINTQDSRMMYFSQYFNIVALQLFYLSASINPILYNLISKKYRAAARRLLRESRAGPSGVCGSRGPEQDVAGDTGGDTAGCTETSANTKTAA
# test-details: Determination of motilin receptor binding affinity (displacement of [125I-Tyr7, Nle13]motilin(porcine))
# Parameters: species or system rabbit
# settings: negative logarithm of the concentration displacing 50% of [125I-Tyr7, Nle13]motilin(porcine) from rabbit antral smooth muscle membranes; read-out: pIC50 (converted)
Square brackets hold non-standard residues; d marks the D form. Peptide text beside a SMILES is read from it. * marks the point of attachment. X1 = C[N+](C)(C)[C@@H](Cc1ccccc1)C(=O)*; X4 = CCN(CC)[C@@H](Cc1ccccc1)C(=O)*
Provide the reported IC50 of each item.
Report only the number, with the unit nM understood.

Consider the molecule CC[C@H](C)[C@H](NC(=O)[C@@H]1CCCN1C(=O)[C@@H](NC(=O)[C@H](Cc1ccccc1)N(CC)CC)C(C)C)C(=O)N[C@@H](Cc1ccccc1)C(=O)N[C@H](C(=O)N[C@@H](Cc1ccc(O)cc1)C(=O)NCC(=O)N[C@@H](CCC(=O)O)C(=O)N[C@@H](CC(C)C)C(=O)N[C@@H](CCC(N)=O)C(=O)N[C@@H](CCCNC(=N)N)C(=O)N[C@@H](CC(C)C)C(=O)N[C@@H](CCC(N)=O)C(N)=O)[C@@H](C)O [[Et2 Phe^1, Leu^13]pMOT(1-14) amide] (X4-VPIFTYGELQRLQ-NH2) . State its measured IC50.
3.89

Identify measured IC50 associated with CC[C@H](C)[C@H](NC(=O)[C@@H]1CCCN1C(=O)[C@@H](NC(=O)[C@@H](N)Cc1ccccc1)C(C)C)C(=O)N[C@@H](Cc1ccccc1)C(=O)N[C@H](C(=O)N[C@@H](Cc1ccc(O)cc1)C(=O)NCC(=O)N[C@@H](CCC(=O)O)C(=O)N[C@@H](CC(C)C)C(=O)N[C@@H](CCC(N)=O)C(=O)N[C@H](C)C(=O)N[C@@H](CC(C)C)C(=O)N[C@@H](CCC(N)=O)C(=O)O)[C@@H](C)O [[D-Ala^12, Leu^13]pMOT(1-14)] (H-FVPIFTYGELQ[dA]LQ-OH)
8.91

Report IC50 for CC[C@H](C)[C@H](NC(=O)[C@@H]1CCCN1C(=O)[C@@H](NC(=O)[C@@H](N)Cc1ccccc1)C(C)C)C(=O)N[C@@H](Cc1ccccc1)C(=O)N[C@H](C(=O)N[C@@H](Cc1ccc(O)cc1)C(=O)N[C@H](C)C(=O)N[C@@H](CCC(=O)O)C(=O)N[C@@H](CC(C)C)C(=O)N[C@@H](CCC(N)=O)C(=O)N[C@H](CCCNC(=N)N)C(=O)N[C@@H](CC(C)C)C(=O)N[C@@H](CCC(N)=O)C(=O)O)[C@@H](C)O [[D-Ala^8, D-Arg^12, Leu^13]pMOT(1-14)] (H-FVPIFTY[dA]ELQ[dR]LQ-OH)
6.03

Fill in reported IC50 for this entry: CC[C@H](C)[C@H](NC(=O)[C@@H]1CCCN1C(=O)[C@@H](NC(=O)[C@H](Cc1ccccc1)[N+](C)(C)C)C(C)C)C(=O)N[C@@H](Cc1ccccc1)C(=O)N[C@H](C(=O)N[C@@H](Cc1ccc(O)cc1)C(=O)NCC(=O)N[C@@H](CCC(=O)O)C(=O)N[C@@H](CC(C)C)C(=O)N[C@@H](CCC(N)=O)C(=O)N[C@@H](CCCNC(=N)N)C(=O)N[C@@H](CC(C)C)C(=O)N[C@@H](CCC(N)=O)C(N)=O)[C@@H](C)O (X1-VPIFTYGELQRLQ-NH2)
2.69

Identify measured IC50 corresponding to CC[C@H](C)[C@H](NC(=O)[C@@H]1CCCN1C(=O)[C@@H](NC(=O)[C@H](Cc1ccccc1)[N+](C)(C)C)C(C)C)C(=O)N[C@@H](Cc1ccccc1)C(=O)N[C@H](C(=O)N[C@@H](Cc1ccc(O)cc1)C(=O)NCC(=O)N[C@@H](CCC(=O)O)C(=O)N[C@@H](CC(C)C)C(=O)N[C@@H](C)C(=O)N[C@H](CCCNC(=N)N)C(=O)N[C@@H](CC(C)C)C(=O)N[C@@H](CCCCN)C(N)=O)[C@@H](C)O (X1-VPIFTYGELA[dR]LK-NH2)
1.29

* * *

Provide the reported pEC50 of each item.
# target-system: segments of rabbit duodenum (Oryctolagus cuniculus, UniProt G1T803)
# test-details: Rabbit duodenal smooth muscle strip tissue bath assay
# Type: cell-based
# settings: negative logarithm of the dose giving 50% of the maximal response to motilin; isotonic contraction of rabbit duodenum segments
# Protocol: The contractile response of segments of rabbit duodenum was determined isotonically in the tissue bath according to the procedure of Depoortere et at., J. Gastrointestinal Motility, 1, 150-159 (1989). The experimental protocol consisted of an equilibration period of 1 hour; a challenge with 10^-4 M acetylcholine followed by a wash-out period; a cumulative dose-response curve of a compound with, at the end, the addition of 10^-7 M motilin; and finally 10^-4 M acetylcholine. […]
Structures can show the parent of a compound that is named as a salt. Square brackets hold non-standard residues; d marks the D form. Peptide text beside a SMILES is read from it. NMeF = CN[C@@H](Cc1ccccc1)C(=O)O
In your answer, state the number alone without any accompanying words.

Look up pEC50 of CC[C@H](C)[C@H](NC(=O)[C@H](C)NC(=O)[C@@H](NC(=O)[C@H](Cc1ccccc1)NC)C(C)C)C(=O)N[C@@H](Cc1ccccc1)C(=O)N[C@H](C(=O)N[C@@H](Cc1ccc(O)cc1)C(=O)NCC(=O)N[C@@H](CCC(=O)O)C(=O)N[C@@H](CC(C)C)C(=O)N[C@@H](C)C(=O)N[C@H](CCCNC(=N)N)C(=O)N[C@@H](CC(C)C)C(=O)N[C@H](CCC(N)=O)C(N)=O)[C@@H](C)O (H-[NMeF]VAIFTYGELA[dR]L[dQ]-NH2) and report it.
7.32

Give me measured pEC50, please, for this compound: CC[C@H](C)[C@H](NC(=O)[C@H](C)NC(=O)[C@@H](NC(=O)[C@H](Cc1ccccc1)NC)C(C)C)C(=O)N[C@@H](Cc1ccccc1)C(=O)N[C@H](C(=O)N[C@@H](Cc1ccc(O)cc1)C(=O)NCC(=O)N[C@@H](CCC(=O)O)C(=O)N[C@@H](CC(C)C)C(=O)N[C@@H](C)C(=O)N[C@H](CCCNC(=N)N)C(=O)N[C@@H](CC(C)C)C(=O)N[C@H](CCCCN)C(N)=O)[C@@H](C)O [Tris-trifluoroacetate Salt] (H-[NMeF]VAIFTYGELA[dR]L[dK]-NH2)
7.80

* * *

So I've got a bunch of compounds here, and I need their IC50 values.
# target-system: motilin receptor (Oryctolagus cuniculus, UniProt G1T803)
# Construct: from tissue; host or cells: rabbit antral smooth muscle membranes
# test-details: Determination of motilin receptor binding affinity (displacement of [125I-Tyr7, Nle13]motilin(porcine))
# Design: species or system rabbit
# settings: negative logarithm of the concentration displacing 50% of [125I-Tyr7, Nle13]motilin(porcine) from rabbit antral smooth muscle membranes; read-out: pIC50 (converted)
Square brackets hold non-standard residues; d marks the D form. Peptide text beside a SMILES is read from it. * marks the point of attachment. X1 = C[N+](C)(C)[C@@H](Cc1ccccc1)C(=O)*; NMeF = CN[C@@H](Cc1ccccc1)C(=O)O
Dear colleague, please return just the value in nM, with no unit written.

Answer briefly: IC50 recorded on motilin receptor (Oryctolagus cuniculus, UniProt G1T803) for CC[C@H](C)[C@H](NC(=O)[C@H](C)NC(=O)[C@@H](NC(=O)[C@H](Cc1ccccc1)[N+](C)(C)C)C(C)C)C(=O)N[C@@H](Cc1ccccc1)C(=O)N[C@H](C(=O)N[C@@H](Cc1ccc(O)cc1)C(=O)NCC(=O)N[C@@H](CCC(=O)O)C(=O)N[C@@H](CC(C)C)C(=O)N[C@@H](C)C(=O)N[C@H](CCCNC(=N)N)C(=O)N[C@@H](CC(C)C)C(=O)N[C@H](CCCCN)C(N)=O)[C@@H](C)O (X1-VAIFTYGELA[dR]L[dK]-NH2)
1.15

Please indicate recorded IC50 of CC[C@H](C)[C@H](NC(=O)[C@H](C)NC(=O)[C@@H](NC(=O)[C@H](Cc1ccccc1)[N+](C)(C)C)C(C)C)C(=O)N[C@@H](Cc1ccccc1)C(=O)N[C@H](C(=O)N[C@@H](Cc1ccc(O)cc1)C(=O)NCC(=O)N[C@@H](CCC(=O)O)C(=O)N[C@@H](CC(C)C)C(=O)N[C@@H](CCC(N)=O)C(=O)N[C@@H](CCCNC(=N)N)C(=O)N[C@@H](CC(C)C)C(=O)N[C@@H](CCCCN)C(N)=O)[C@@H](C)O (X1-VAIFTYGELQRLK-NH2) measured with motilin receptor (Oryctolagus cuniculus, UniProt G1T803).
1.51

Using motilin receptor (Oryctolagus cuniculus, UniProt G1T803) as the test system, report measured IC50 of CC[C@H](C)[C@H](NC(=O)[C@@H]1CCCN1C(=O)[C@@H](NC(=O)[C@H](Cc1ccccc1)NC)C(C)C)C(=O)N[C@@H](Cc1ccccc1)C(=O)N[C@H](C(=O)N[C@@H](Cc1ccc(O)cc1)C(=O)NCC(=O)N[C@@H](CCC(=O)O)C(=O)N[C@@H](CC(C)C)C(=O)N[C@@H](C)C(=O)N[C@H](CCCNC(=N)N)C(=O)N[C@@H](CC(C)C)C(=O)N[C@@H](CCCCN)C(N)=O)[C@@H](C)O (H-[NMeF]VPIFTYGELA[dR]LK-NH2) .
0.468

Name the recorded IC50 of CC[C@H](C)[C@H](NC(=O)[C@@H]1CCCN1C(=O)[C@@H](NC(=O)[C@@H](N)Cc1ccccc1)C(C)C)C(=O)N[C@@H](Cc1ccccc1)C(=O)N[C@H](C(=O)N[C@@H](Cc1ccc(O)cc1)C(=O)NCC(=O)N[C@@H](CCC(=O)O)C(=O)N[C@@H](CC(C)C)C(=O)N[C@@H](CCC(N)=O)C(=O)N[C@H](CC(N)=O)C(=O)N[C@@H](CC(C)C)C(=O)N[C@@H](CCC(N)=O)C(=O)O)[C@@H](C)O [[D-Asn^12, Leu^13]pMOT(1-14)] (H-FVPIFTYGELQ[dN]LQ-OH) , assay system motilin receptor (Oryctolagus cuniculus, UniProt G1T803).
7.59

Tell me its IC50 on motilin receptor (Oryctolagus cuniculus, UniProt G1T803): CC[C@H](C)[C@H](NC(=O)[C@@H]1CCCN1C(=O)[C@@H](NC(=O)[C@H](Cc1ccccc1)NC)C(C)C)C(=O)N[C@@H](Cc1ccccc1)C(=O)N[C@H](C(=O)N[C@@H](Cc1ccc(O)cc1)C(=O)NCC(=O)N[C@@H](CCC(=O)O)C(=O)N[C@@H](CC(C)C)C(=O)N[C@@H](CCC(N)=O)C(=O)N[C@@H](CCCNC(=N)N)C(=O)N[C@@H](CC(C)C)C(=O)N[C@H](CCC(N)=O)C(N)=O)[C@@H](C)O (H-[NMeF]VPIFTYGELQRL[dQ]-NH2)
0.617
